# experimental details: Clearance in iv dosed patient with renal impairment
# Format: ADME, organism-based
# condition: human, in vivo
readout: clearance (mL/min/kg)
One number for each entry, in mL/min/kg.

Request: For O=C1CC2(CCCC2)CC(=O)N1CCCCN1CCN(c2ncccn2)CC1 , what is its reported clearance?
Response: 28

* * *

Answer each item with its documented pKa.
# experimental details: physchem
# Description: Dissociation constant, pKa of the compound
Answers are plain numbers.

Examples with their reported pKa follow.
CNCCC=C1c2ccccc2CCc2ccccc21 [NORTRIPTYLINE] = 13.9
O=C1Nc2ccc(Cl)cc2[C@@](C#CC2CC2)(C(F)(F)F)O1 [EFAVIRENZ] = 7.18
COc1ccccc1Oc1c(NS(=O)(=O)c2ccc(C(C)(C)C)cc2)nc(-c2ncccn2)nc1OCCO [BOSENTAN] = 8.36
Cc1onc(-c2ccccc2)c1-c1ccc(S(N)(=O)=O)cc1 [VALDECOXIB] = 13.1
C#Cc1cccc(Nc2ncnc3cc(OCCOC)c(OCCOC)cc23)c1 [ERLOTINIB] = 13.9
Cc1ccc(O)c([C@H](CCN(C(C)C)C(C)C)c2ccccc2)c1 [TOLTERODINE] = 14.7

For each of the compounds below, note its pKa.
1. CCC(C)n1ncn(-c2ccc(N3CCN(c4ccc(OCC5COC(Cn6cncn6)(c6ccc(Cl)cc6Cl)O5)cc4)CC3)cc2)c1=O (configuration not stated) [ITRACONAZOLE]
2. COc1cccc(C2(O)CCCCC2CN(C)C)c1 (racemic) [TRAMADOL]
3. O=C(c1ccc(F)cc1)C1CCN(CCn2c(=O)[nH]c3ccccc3c2=O)CC1 [KETANSERIN]
4. CC(C)(O)c1ccccc1CC[C@@H](SCC1(CC(=O)O)CC1)c1cccc(/C=C/c2ccc3ccc(Cl)cc3n2)c1 [MONTELUKAST]
5. CC(NC(C)(C)C)C(=O)c1cccc(Cl)c1 (configuration not stated) [BUPROPION]

Response:
15
10
14.1
15.9
15.4
